- Tested on: SF-268 CNS
- measurementDescription: NCI-60 one-dose screen, 48 h
- reportedConditions: 10 µM
Compounds without any hit were thinned out: in the full panel of roughly 83,000, 20% have a hit. The source made the active and inactive calls. The calls were made as follows: active = growth percent below 10; inactive = the rest.
Permitted responses: label 1 (active), label 0 (inactive)

Q: Kindly provide the recorded test outcome for the following molecule: "Cn1c([N+](=O)[O-])cnc1/C=C1\Oc2cc(Cl)ccc2C1=O"
A: label 1

Q: // return assay outcome for "COc1ccc(-c2cc(-c3cccc(NS(C)(=O)=O)c3)nc(N)c2C#N)cc1"
A: label 0

Q: Hi, sorry to bother you, what did the test record for O=C1NC(=O)N(Cc2ccccc2)CC1Br (stereo unspecified) ?
A: label 0

Q: Field: outcome | Entry: "COc1ccc2c(c1OC)O/C(=C\c1ncc([N+](=O)[O-])n1C)C2=O"
A: label 1

Q: Each molecule tested received a call. Report the one for "COC(=O)c1c(-c2ccccc2)csc1NC(=O)c1c(-c2ccccc2)noc1C" .
A: label 0

Q: Recorded test outcome, item "COC(=O)C1=NNC(=S)N(c2cc(C)[nH]n2)C(=O)C1"
A: label 0
